# ASSAY SYSTEM: SIRT1 (Homo sapiens)
# PROTOCOL DETAILS: Mass spectrometry based assay to identify modulators of SIRT1 activity (deacetylation of p53-based acetylated peptide)
# Assay type: biochemical
# TEST CONTEXT: SIRT1 activation; 10 nM SIRT1, 0.5 μM peptide substrate, 120 μM βNAD+, 25 minutes at 25° C.
# Excerpt: A mass spectrometry based assay was used to identify modulators of SIRT1 activity. The mass spectrometry based assay utilizes a peptide having 20 amino acid residues as follows: Ac-EE-K(biotin)-GQSTSSHSK(Ac)NleSTEG-K(5TMR)-EE-NH2 (SEQ ID NO: 1) wherein K(Ac) is an acetylated lysine residue and Nle is a norleucine. The peptide is labeled with the fluorophore 5TMR (excitation 540 nm/emission 580 nm) at the C-terminus. The sequence of the peptide substrate is based on p53 with several modifications. […]
PROPERTY LABEL: EC1.5 μM

// worked examples, EC1.5 μM included
[[record]]
molecule = "Cn1c(-c2ccc(C(F)(F)F)cc2)nc2c(NC(=O)c3cnccn3)cccc2c1=O [Compound 251]"
assay_system = "SIRT1 (Homo sapiens)"
property_label = "EC1.5 μM"
result = "B (EC1.5 1-25 μM)"

[[record]]
molecule = "O=C(Nc1nccs1)c1cccc2c(=O)cc(-c3ccccc3OC(F)(F)F)[nH]c12 [Compound 430]"
assay_system = "SIRT1 (Homo sapiens)"
property_label = "EC1.5 μM"
result = "A (EC1.5<1.0 μM)"

[[record]]
molecule = "Cn1c(-c2cccc(CN3CCCC3)c2)nc2c(C(=O)Nc3ccccn3)cccc2c1=O [Compound 276]"
assay_system = "SIRT1 (Homo sapiens)"
property_label = "EC1.5 μM"
result = "B (EC1.5 1-25 μM)"

[[record]]
molecule = "Cn1c(-c2cccc(C(F)(F)F)c2)nc2c(NC(=O)C3CCCC(=O)N3)cccc2c1=O (centres unmarked) [Compound 365]"
assay_system = "SIRT1 (Homo sapiens)"
property_label = "EC1.5 μM"
result = "B (EC1.5 1-25 μM)"

[[record]]
molecule = "O=C(Nc1ccccn1)c1cccc2c(=O)[nH]c(-c3ccccc3OC(F)(F)F)nc12 [Compound 320]"
assay_system = "SIRT1 (Homo sapiens)"
property_label = "EC1.5 μM"
result = "A (EC1.5<1.0 μM)"


stdin: What EC1.5 μM value was documented for this molecule, Cn1c(-c2cscn2)nc2c(NC(=O)c3cnccn3)cccc2c1=O [Compound 283] ?
stdout: C (EC1.5>25 μM)

* * *

# ASSAY SYSTEM: SIRT1 (Homo sapiens, UniProt Q96EB6)
# PROTOCOL DETAILS: Mass spectrometry based assay to identify modulators of SIRT1 activity (deacetylation of p53-based acetylated peptide)
# Assay type: biochemical
# TEST CONTEXT: SIRT1 activation; 10 nM SIRT1, 0.5 μM peptide substrate, 120 μM βNAD+, 25 minutes at 25° C.
PROPERTY LABEL: EC1.5 μM

[[record]]
compound = "CCn1c(-c2cccc(C(F)(F)F)c2)nc2c(NC(=O)c3cnccn3)cccc2c1=O"
result = "A (EC1.5<1.0 μM)"

[[record]]
compound = "O=C(Nc1ccccn1)c1cccc2c(=O)[nH]c(-c3ccccc3C(F)F)nc12"
result = "A (EC1.5<1.0 μM)"

[[record]]
compound = "Cn1c(-c2cccc(C(F)(F)F)c2)nc2c(C(=O)Nc3ccc(OCC(O)CO)cc3)cccc2c1=O (stereo not shown)"
result = "A (EC1.5<1.0 μM)"


* * *

# ASSAY SYSTEM: SIRT1 (Homo sapiens, UniProt Q96EB6)
# Sequence (Q96EB6 1-747): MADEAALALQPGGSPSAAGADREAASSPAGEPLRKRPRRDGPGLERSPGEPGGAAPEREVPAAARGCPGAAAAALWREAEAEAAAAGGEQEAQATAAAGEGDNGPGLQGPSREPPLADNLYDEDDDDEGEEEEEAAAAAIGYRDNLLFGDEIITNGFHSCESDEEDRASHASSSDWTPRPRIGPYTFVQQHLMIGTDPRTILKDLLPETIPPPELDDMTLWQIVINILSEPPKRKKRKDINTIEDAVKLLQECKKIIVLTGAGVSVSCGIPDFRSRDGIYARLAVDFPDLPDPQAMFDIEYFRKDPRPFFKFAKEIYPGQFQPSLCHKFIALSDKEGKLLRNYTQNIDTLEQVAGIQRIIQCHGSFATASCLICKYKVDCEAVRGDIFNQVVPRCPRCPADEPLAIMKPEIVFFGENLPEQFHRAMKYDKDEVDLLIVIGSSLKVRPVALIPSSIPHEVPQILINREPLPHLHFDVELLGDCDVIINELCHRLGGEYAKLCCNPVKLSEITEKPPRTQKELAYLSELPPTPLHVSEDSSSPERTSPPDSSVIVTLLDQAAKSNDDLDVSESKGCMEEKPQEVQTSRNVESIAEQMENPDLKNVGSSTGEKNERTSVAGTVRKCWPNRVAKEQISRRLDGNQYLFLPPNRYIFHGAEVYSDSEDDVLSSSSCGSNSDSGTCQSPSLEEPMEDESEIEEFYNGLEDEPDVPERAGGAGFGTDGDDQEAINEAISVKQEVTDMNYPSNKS
# PROTOCOL DETAILS: Mass spectrometry based assay to identify modulators of SIRT1 activity (deacetylation of p53-based acetylated peptide)
# Assay type: biochemical
# TEST CONTEXT: SIRT1 activation; 10 nM SIRT1, 0.5 μM peptide substrate, 120 μM βNAD+, 25 minutes at 25° C.
PROPERTY LABEL: EC1.5 μM

[[record]]
compound = "CN1CCCC1C(=O)Nc1cccc2c(=O)n(C)c(-c3cccc(C(F)(F)F)c3)nc12 (stereo not drawn)"
result = "B (EC1.5 1-25 μM)"

[[record]]
compound = "Cn1c(-c2cccc(C(F)(F)F)c2)nc2c(C(=O)Nc3ccncc3)cccc2c1=O"
result = "B (EC1.5 1-25 μM)"

[[record]]
compound = "Cc1ncsc1-c1nc2c(NC(=O)c3cnccn3)cccc2c(=O)n1C"
result = "B (EC1.5 1-25 μM)"


* * *

# ASSAY SYSTEM: SIRT1 (Homo sapiens, UniProt Q96EB6)
# PROTOCOL DETAILS: Mass spectrometry based assay to identify modulators of SIRT1 activity (deacetylation of p53-based acetylated peptide)
# Format: biochemical
# TEST CONTEXT: SIRT1 activation; 10 nM SIRT1, 0.5 μM peptide substrate, 120 μM βNAD+, 25 minutes at 25° C.
PROPERTY LABEL: EC1.5 μM

// worked examples, EC1.5 μM included
[[record]]
molecule = "O=C(Nc1ccccn1)c1cccc2c(=O)n(CCN3CCCC3)c(-c3cccc(C(F)(F)F)c3)nc12 [Compound 272]"
result = "B (EC1.5 1-25 μM)"

[[record]]
molecule = "Cn1c(-c2cccc(C(F)(F)F)c2)nc2c(C(=O)Nc3ncc(CN4CCCC4)s3)cccc2c1=O [Compound 358]"
result = "B (EC1.5 1-25 μM)"

[[record]]
molecule = "Cc1cc(NC(=O)c2cccc3c(=O)n(C)c(-c4cccc(C(F)(F)F)c4)nc23)sn1 [Compound 296]"
result = "B (EC1.5 1-25 μM)"

[[record]]
molecule = "Cn1c(-c2cccc(C(F)(F)F)c2)nc2c(C(=O)Nc3cccc(OC[C@@H](O)CO)n3)cccc2c1=O [Compound 356]"
result = "A (EC1.5<1.0 μM)"

[[record]]
molecule = "O=C(Nc1cccc2c(=O)[nH]c(-c3cccc(OC(F)F)c3)nc12)c1cnccn1 [Compound 316]"
result = "C (EC1.5>25 μM)"


stdin: What EC1.5 μM value was documented for this molecule, O=C(Nc1cccc2c(=O)[nH]c(-c3cccc(C(F)(F)F)c3)nc12)c1cnccn1 [Compound 231] ?
stdout: C (EC1.5>25 μM)

stdin: What EC1.5 μM value was documented for this molecule, Cn1c(-c2cccc(C(F)(F)F)c2)nc2c(NC(=O)c3cnccn3)cccc2c1=O [Compound 202] ?
stdout: A (EC1.5<1.0 μM)

stdin: What EC1.5 μM value was documented for this molecule, CC(C)Cn1c(-c2cccc(C(F)(F)F)c2)nc2c(NC(=O)c3cnccn3)cccc2c1=O [Compound 234] ?
stdout: A (EC1.5<1.0 μM)

* * *

# ASSAY SYSTEM: SIRT1 (Homo sapiens, UniProt Q96EB6)
# PROTOCOL DETAILS: Mass spectrometry based assay to identify modulators of SIRT1 activity (deacetylation of p53-based acetylated peptide)
# Type: biochemical
# TEST CONTEXT: SIRT1 activation; 10 nM SIRT1, 0.5 μM peptide substrate, 120 μM βNAD+, 25 minutes at 25° C.
PROPERTY LABEL: EC1.5 μM

// worked examples, EC1.5 μM included
[[record]]
compound = "Cn1c(-c2ccc(N3CCOCC3)cc2)nc2c(C(=O)Nc3ccccn3)cccc2c1=O [Compound 217]"
assay_system = "SIRT1 (Homo sapiens, UniProt Q96EB6)"
result = "B (EC1.5 1-25 μM)"

[[record]]
compound = "Cn1c(-c2cccnc2)nc2c(NC(=O)c3cnccn3)cccc2c1=O [Compound 278]"
assay_system = "SIRT1 (Homo sapiens, UniProt Q96EB6)"
result = "B (EC1.5 1-25 μM)"

[[record]]
compound = "Cn1c(-c2cccc(OC(F)(F)F)c2)nc2c(C(=O)Nc3ccccn3)cccc2c1=O [Compound 207]"
assay_system = "SIRT1 (Homo sapiens, UniProt Q96EB6)"
result = "A (EC1.5<1.0 μM)"

[[record]]
compound = "O=C(Nc1nccs1)c1cccc2c(=O)cc(-c3ccccc3C(F)(F)F)[nH]c12 [Compound 427]"
assay_system = "SIRT1 (Homo sapiens, UniProt Q96EB6)"
result = "A (EC1.5<1.0 μM)"

[[record]]
compound = "Cn1c(-c2cccc(C(F)(F)F)c2)nc2c(C(=O)Nc3ccnc(OCC(O)CO)n3)cccc2c1=O (centres unmarked) [Compound 355]"
assay_system = "SIRT1 (Homo sapiens, UniProt Q96EB6)"
result = "A (EC1.5<1.0 μM)"

[[record]]
compound = "COc1cccc(C(=O)Nc2cccc3c(=O)cc(-c4cccc(C(F)(F)F)c4)[nH]c23)n1 [Compound 422]"
assay_system = "SIRT1 (Homo sapiens, UniProt Q96EB6)"
result = "A (EC1.5<1.0 μM)"

[[record]]
compound = "Cn1c(-c2cccc(C(F)(F)F)c2)nc2c(C(=O)Nc3nnc(C(C)(C)C)s3)cccc2c1=O [Compound 297]"
assay_system = "SIRT1 (Homo sapiens, UniProt Q96EB6)"
result = "A (EC1.5<1.0 μM)"


stdin: What EC1.5 μM value was documented for this compound, Cn1c(-c2cccc(C(F)(F)F)c2)nc2c(C(=O)Nc3cccnc3)cccc2c1=O [Compound 265] ?
stdout: B (EC1.5 1-25 μM)
